Data credit: ChEMBL document CHEMBL1139077

- experimental.system: D(3) dopamine receptor (Homo sapiens)
- Sequence (P35462 whole entry): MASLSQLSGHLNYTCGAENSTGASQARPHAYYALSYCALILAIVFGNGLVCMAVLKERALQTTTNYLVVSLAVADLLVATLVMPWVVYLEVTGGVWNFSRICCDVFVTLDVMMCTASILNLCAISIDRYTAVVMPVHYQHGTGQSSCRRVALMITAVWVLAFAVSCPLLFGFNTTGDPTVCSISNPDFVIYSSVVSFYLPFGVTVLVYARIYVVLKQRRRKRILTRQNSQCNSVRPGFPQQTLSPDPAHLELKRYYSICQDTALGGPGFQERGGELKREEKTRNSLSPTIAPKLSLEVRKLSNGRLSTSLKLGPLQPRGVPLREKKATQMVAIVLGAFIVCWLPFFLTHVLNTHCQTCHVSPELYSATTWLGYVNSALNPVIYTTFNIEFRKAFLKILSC
observed.property: Ki (µM)
Numbers only, in µM.

// solved cases for Ki follow
CN1CCc2ccccc2Cc2[nH]c3ccc(O)cc3c2CC1 : 0.944
COc1ccc2c(c1)CCN(C)CCc1c([nH]c3ccccc13)C2 : 1.14
CN1CCc2ccccc2Cc2[nH]c3ccccc3c2CC1 : 0.0403
COc1ccc2c(c1)c1c(n2C)Cc2ccccc2CCN(C)CC1 : 0.00378

Data request: Find the recorded Ki belonging to `CN1CCc2cc(O)ccc2Cc2[nH]c3ccccc3c2CC1` and report it.
Data returned: 2.07

---

- experimental.system: D(1A) dopamine receptor (Homo sapiens, UniProt P21728)
- Sequence (P21728 whole entry): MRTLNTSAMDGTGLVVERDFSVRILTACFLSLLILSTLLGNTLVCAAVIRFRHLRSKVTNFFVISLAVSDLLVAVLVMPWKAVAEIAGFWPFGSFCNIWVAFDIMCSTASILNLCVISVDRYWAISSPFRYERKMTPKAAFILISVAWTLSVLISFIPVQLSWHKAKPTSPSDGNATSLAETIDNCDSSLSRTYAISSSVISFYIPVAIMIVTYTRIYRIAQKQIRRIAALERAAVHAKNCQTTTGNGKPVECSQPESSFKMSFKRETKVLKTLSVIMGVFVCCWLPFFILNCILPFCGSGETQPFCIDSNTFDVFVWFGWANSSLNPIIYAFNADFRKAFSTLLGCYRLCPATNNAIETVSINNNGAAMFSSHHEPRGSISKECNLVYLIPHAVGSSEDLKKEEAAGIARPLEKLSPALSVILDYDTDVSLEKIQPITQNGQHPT
- assay.name: Displacement of [3H]SCH 23390 from human cloned dopamine D1 receptor expressed in HEK 293 cells
Mark each entry true if its Ki sits below 2 nM, and false for all others.

CN1CCc2ccccc2Cc2[nH]c3ccc(O)cc3c2CC1 : true
COc1ccc2[nH]c3c(c2c1)CCN(C)CCc1ccccc1C3 : true
CN1CCc2cc(O)ccc2Cc2[nH]c3ccccc3c2CC1 : false

Now look at this entry.
Data request: Please state whether Ki is below 2 nM for `COc1ccc2c(c1)CCN(C)CCc1c([nH]c3ccccc13)C2`
Data returned: false

---

Record set of pKi for target or system D(1B) dopamine receptor (Homo sapiens, UniProt P21918).
Answers are plain numbers, as −log10 of the molar value.

// solved cases for pKi follow
COc1ccc2c(c1)CCN(C)CCc1ccccc1C2 : 7.42
CN1CCc2ccccc2Cc2[nH]c3ccc(O)cc3c2CC1 : 9.41

Here's the next entry for you.
Data request: Find the recorded pKi belonging to `COc1ccc2c(c1)c1c(n2C)Cc2ccccc2CCN(C)CC1` and report it.
Data returned: 9.64

---

- assay.name: Binding affinity to human cloned dopamine D4.4 receptor expressed in CHO cells
- Format: cell-based
observed.property: pKi
Answers are plain numbers, as −log10 of the molar value.

// solved cases for pKi follow
CN1CCc2ccccc2Cc2[nH]c3ccccc3c2CC1 : 6.96
COc1ccc2c(c1)c1c(n2C)Cc2ccccc2CCN(C)CC1 : 7.67
CN1CCc2cc(O)ccc2Cc2[nH]c3ccccc3c2CC1 : 5.87
CN1CCc2ccccc2Cc2[nH]c3ccc(O)cc3c2CC1 : 6.40
COc1ccc2[nH]c3c(c2c1)CCN(C)CCc1ccccc1C3 : 6.58

Required: pKi, one value per compound below.
1. COc1ccc2c(c1)CCN(C)CCc1ccccc1C2
2. COc1ccc2c(c1)CCN(C)CCc1c([nH]c3ccccc13)C2

Data returned:
7.36
7.03
